# study_target: Growth factor receptor-bound protein 2 (Homo sapiens, UniProt P62993)
# Sequence (P62993 whole entry, the tested form may be a part): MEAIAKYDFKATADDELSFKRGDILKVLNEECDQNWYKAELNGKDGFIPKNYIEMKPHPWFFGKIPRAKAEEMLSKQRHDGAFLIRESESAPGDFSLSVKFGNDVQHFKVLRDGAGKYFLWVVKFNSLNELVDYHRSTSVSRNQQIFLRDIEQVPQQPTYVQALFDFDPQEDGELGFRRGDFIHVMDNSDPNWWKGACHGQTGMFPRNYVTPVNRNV
# protocol_text: Inhibition of Grb2 SH2 domain binding to phospho-EGF receptor intracellular C-terminal domain
property: pIC50
Value format note: pIC50 is -log10 of concentration (mol/L); just state the number.

# input Entry under review: `Cc1sc(-c2nccc(N)n2)nc1-c1ccc(OP(=O)(O)O)cc1` . Reported pIC50?
# output 4.59

The origin of these recorded values is ChEMBL document CHEMBL1131792.
